# Assay Text: Plasma pharmacokinetics of TSU-68
# Format: in vivo, human (Japanese patients)
# Assay Context: human, plasma, oral, 200 mg/m2, Tmax, 200 mg/m^2, Day 1, 3 patients, plasma
Reported Property: Tmax (h)
Give just the number in h; leave the unit off.

GET /values?readout=Tmax&item= Cc1[nH]c(/C=C2\C(=O)Nc3ccccc32)c(C)c1CCC(=O)O [TSU-68]
2.3

====

# Assay Text: Plasma pharmacokinetics of TSU-68
# Format: in vivo, human (Japanese patients)
# Assay Context: human, plasma, oral, 400 mg/m2, Cmax, 400 mg/m^2, Day 8, 3 patients, plasma
Reported Property: Cmax (ng/mL)
Give just the number in ng/mL; leave the unit off.

GET /values?readout=Cmax&item= Cc1[nH]c(/C=C2\C(=O)Nc3ccccc32)c(C)c1CCC(=O)O
7210

====

# Assay Text: Plasma pharmacokinetics of TSU-68
# Format: in vivo, human (Japanese patients)
# Assay Context: human, plasma, oral, 400 mg/m2, Tmax, 400 mg/m^2, Day 29, 2 patients, plasma
Reported Property: Tmax (h)
Give just the number in h; leave the unit off.

GET /values?readout=Tmax&item= Cc1[nH]c(/C=C2\C(=O)Nc3ccccc32)c(C)c1CCC(=O)O
1

====

# Assay Text: Plasma pharmacokinetics of TSU-68
# Assay type: in vivo, human (Japanese patients)
# Assay Context: human, plasma, oral, 200 mg/m2, AUC0–t, 200 mg/m^2, Day 29, 3 patients, plasma
Reported Property: AUC(0-t) (ng·h/mL)
Give just the number in ng·h/mL; leave the unit off.

GET /values?readout=AUC(0-t)&item= Cc1[nH]c(/C=C2\C(=O)Nc3ccccc32)c(C)c1CCC(=O)O
21200

====

# Assay Text: Plasma pharmacokinetics of TSU-68
# Format: in vivo, human (Japanese patients)
# Assay Context: human, plasma, oral, 400 mg/m2, Cmax, 400 mg/m^2, Day 29, 2 patients, plasma
Reported Property: Cmax (ng/mL)
Give just the number in ng/mL; leave the unit off.

GET /values?readout=Cmax&item= Cc1[nH]c(/C=C2\C(=O)Nc3ccccc32)c(C)c1CCC(=O)O [TSU-68]
6350

====

# Assay Text: Plasma pharmacokinetics of TSU-68
# Format: in vivo, human (Japanese patients)
# Assay Context: human, plasma, oral, 800 mg/m2, Tmax, 800 mg/m^2, Day 1, 6 patients, plasma
Reported Property: Tmax
Number plus unit, in that order.

GET /values?readout=Tmax&item= Cc1[nH]c(/C=C2\C(=O)Nc3ccccc32)c(C)c1CCC(=O)O
2.8 h

====

# Assay Text: Plasma pharmacokinetics of TSU-68
# Format: in vivo, human (Japanese patients)
# Assay Context: human, plasma, oral, 400 mg/m2, Tmax, 400 mg/m^2, Day 8, 3 patients, plasma
Reported Property: Tmax (h)
Give just the number in h; leave the unit off.

GET /values?readout=Tmax&item= Cc1[nH]c(/C=C2\C(=O)Nc3ccccc32)c(C)c1CCC(=O)O
1.8

====

# Assay Text: Plasma pharmacokinetics of TSU-68
# Assay type: in vivo, human (Japanese patients)
# Assay Context: human, plasma, oral, 800 mg/m2, T1/2, 800 mg/m^2, Day 29, 4 patients, plasma
Reported Property: half-life (h)
Give just the number in h; leave the unit off.

GET /values?readout=half-life&item= Cc1[nH]c(/C=C2\C(=O)Nc3ccccc32)c(C)c1CCC(=O)O
4.37

====

# Assay Text: Plasma pharmacokinetics of TSU-68
# Assay type: in vivo, human (Japanese patients)
# Assay Context: human, plasma, oral, 200 mg/m2, AUC0–t, 200 mg/m^2, Day 1, 3 patients, plasma
Reported Property: AUC(0-t) (µg·h/mL)
Give just the number in µg·h/mL; leave the unit off.

GET /values?readout=AUC(0-t)&item= Cc1[nH]c(/C=C2\C(=O)Nc3ccccc32)c(C)c1CCC(=O)O [TSU-68]
45.6

====

# Assay Text: Plasma pharmacokinetics of TSU-68
# Type: in vivo, human (Japanese patients)
# Assay Context: human, plasma, oral, 800 mg/m2, Cmax, 800 mg/m^2, Day 1, 6 patients, plasma
Reported Property: Cmax (ng/mL)
Give just the number in ng/mL; leave the unit off.

GET /values?readout=Cmax&item= Cc1[nH]c(/C=C2\C(=O)Nc3ccccc32)c(C)c1CCC(=O)O [TSU-68]
14600

====

# Assay Text: Plasma pharmacokinetics of TSU-68
# Type: in vivo, human (Japanese patients)
# Assay Context: human, plasma, oral, 200 mg/m2, Cmax, 200 mg/m^2, Day 8, 3 patients, plasma
Reported Property: Cmax (ng/mL)
Give just the number in ng/mL; leave the unit off.

GET /values?readout=Cmax&item= Cc1[nH]c(/C=C2\C(=O)Nc3ccccc32)c(C)c1CCC(=O)O
6670

====

# Assay Text: Plasma pharmacokinetics of TSU-68
# Type: in vivo, human (Japanese patients)
# Assay Context: human, plasma, oral, 1200 mg/m^2, Tmax, 1,200 mg/m^2, Day 1, 3 patients, plasma
Reported Property: Tmax (h)
Give just the number in h; leave the unit off.

GET /values?readout=Tmax&item= Cc1[nH]c(/C=C2\C(=O)Nc3ccccc32)c(C)c1CCC(=O)O
2.2

====

# Assay Text: Plasma pharmacokinetics of TSU-68
# Format: in vivo, human (Japanese patients)
# Assay Context: human, plasma, oral, 200 mg/m2, T1/2, 200 mg/m^2, Day 29, 3 patients, plasma
Reported Property: half-life (h)
Give just the number in h; leave the unit off.

GET /values?readout=half-life&item= Cc1[nH]c(/C=C2\C(=O)Nc3ccccc32)c(C)c1CCC(=O)O
3.59

====

# Assay Text: Plasma pharmacokinetics of TSU-68
# Format: in vivo, human (Japanese patients)
# Assay Context: human, plasma, oral, 200 mg/m2, Cmax, 200 mg/m^2, Day 29, 3 patients, plasma
Reported Property: Cmax (ng/mL)
Give just the number in ng/mL; leave the unit off.

GET /values?readout=Cmax&item= Cc1[nH]c(/C=C2\C(=O)Nc3ccccc32)c(C)c1CCC(=O)O [TSU-68]
6350

====

# Assay Text: Plasma pharmacokinetics of TSU-68
# Format: in vivo, human (Japanese patients)
# Assay Context: human, plasma, oral, 1200 mg/m^2, Cmax, 1,200 mg/m^2, Day 8, 3 patients, plasma
Reported Property: Cmax (ng/mL)
Give just the number in ng/mL; leave the unit off.

GET /values?readout=Cmax&item= Cc1[nH]c(/C=C2\C(=O)Nc3ccccc32)c(C)c1CCC(=O)O
8150

====

# Assay Text: Plasma pharmacokinetics of TSU-68
# Assay type: in vivo, human (Japanese patients)
# Assay Context: human, plasma, oral, 800 mg/m2, Tmax, 800 mg/m^2, Day 29, 4 patients, plasma
Reported Property: Tmax (h)
Give just the number in h; leave the unit off.

GET /values?readout=Tmax&item= Cc1[nH]c(/C=C2\C(=O)Nc3ccccc32)c(C)c1CCC(=O)O
2.1

====

# Assay Text: Plasma pharmacokinetics of TSU-68
# Type: in vivo, human (Japanese patients)
# Assay Context: human, plasma, oral, 800 mg/m2, Tmax, 800 mg/m^2, Day 8, 5 patients, plasma
Reported Property: Tmax (h)
Give just the number in h; leave the unit off.

GET /values?readout=Tmax&item= Cc1[nH]c(/C=C2\C(=O)Nc3ccccc32)c(C)c1CCC(=O)O
1.5

====

# Assay Text: Plasma pharmacokinetics of TSU-68
# Assay type: in vivo, human (Japanese patients)
# Assay Context: human, plasma, oral, 1200 mg/m^2, Tmax, 1,200 mg/m^2, Day 8, 3 patients, plasma
Reported Property: Tmax (h)
Give just the number in h; leave the unit off.

GET /values?readout=Tmax&item= Cc1[nH]c(/C=C2\C(=O)Nc3ccccc32)c(C)c1CCC(=O)O
1.8

====

# Assay Text: Plasma pharmacokinetics of TSU-68
# Type: in vivo, human (Japanese patients)
# Assay Context: human, plasma, oral, 800 mg/m2, AUC0–t, 800 mg/m^2, Day 1, 6 patients, plasma
Reported Property: AUC(0-t) (ng·h/mL)
Give just the number in ng·h/mL; leave the unit off.

GET /values?readout=AUC(0-t)&item= Cc1[nH]c(/C=C2\C(=O)Nc3ccccc32)c(C)c1CCC(=O)O
83300

====

# Assay Text: Plasma pharmacokinetics of TSU-68
# Type: in vivo, human (Japanese patients)
# Assay Context: human, plasma, oral, 200 mg/m2, Tmax, 200 mg/m^2, Day 29, 3 patients, plasma
Reported Property: Tmax (h)
Give just the number in h; leave the unit off.

GET /values?readout=Tmax&item= Cc1[nH]c(/C=C2\C(=O)Nc3ccccc32)c(C)c1CCC(=O)O [TSU-68]
1.7

====

# Assay Text: Plasma pharmacokinetics of TSU-68
# Assay type: in vivo, human (Japanese patients)
# Assay Context: human, plasma, oral, 200 mg/m2, Cmax, 200 mg/m^2, Day 1, 3 patients, plasma
Reported Property: Cmax (ng/mL)
Give just the number in ng/mL; leave the unit off.

GET /values?readout=Cmax&item= Cc1[nH]c(/C=C2\C(=O)Nc3ccccc32)c(C)c1CCC(=O)O [TSU-68]
10600

Source listed as paper PMC3082041.
